# protocol: Cytotoxicity against human MT4 cells measured by MTT assay
# Assay type: cell-based
Catalogue of CC50 readings, one per entry.
Expressed in nM, but write only the number.

Please review the following examples before continuing.
Cc1cc(OC2CCCCC2)nc(Nc2ccc(C#N)cc2)n1	320
N#Cc1ccc(Nc2nccc(NC3CCCC3)n2)cc1	9130
Cc1cnc(Nc2ccc(C#N)cc2)nc1SC1CCCCC1	33400
Cc1cnc(Nc2ccc(C#N)cc2)nc1NC1CC1	360
N#Cc1ccc(Nc2nccc(OC3CCCCC3)n2)cc1	322000
Cc1cnc(Nc2ccc(C#N)cc2)nc1NC1CCCC1	170
Cc1cc(NC2CCCC2)nc(Nc2ccc(C#N)cc2)n1	310
Cc1cc(NC2CCCCC2)nc(Nc2ccc(C#N)cc2)n1	340

Then there is this compound:
Qu. Entry Cc1cc(NC2CC2)nc(Nc2ccc(C#N)cc2)n1 has what CC50?
Ans. 88
